- experimental_details: Phase 1 open-label, fixed-sequence, single-ascending dose and food-effect PK study of MT1621 in adult healthy subjects
- Type: in vivo, human
- settings: both sexes, human, plasma, oral, 133.3 mg/kg, Treatment C: single 133.3 mg/kg MT1621, fasted; baseline-adjusted plasma; median (minimum, maximum); read-out: Tmax
quantity_name: Tmax (h)
State the answer as a number, implicitly in h.

Quick note, Tmax for `Nc1ccn([C@H]2C[C@H](O)[C@@H](CO)O2)c(=O)n1` landed at 1.26

Entry `Cc1cn([C@H]2C[C@H](O)[C@@H](CO)O2)c(=O)[nH]c1=O` , Tmax reported as 1.25
